Molecular target: Diacylglycerol lipase-beta (Mus musculus) (UniProt Q91WC9)
Sequence (Q91WC9 whole entry, looked up): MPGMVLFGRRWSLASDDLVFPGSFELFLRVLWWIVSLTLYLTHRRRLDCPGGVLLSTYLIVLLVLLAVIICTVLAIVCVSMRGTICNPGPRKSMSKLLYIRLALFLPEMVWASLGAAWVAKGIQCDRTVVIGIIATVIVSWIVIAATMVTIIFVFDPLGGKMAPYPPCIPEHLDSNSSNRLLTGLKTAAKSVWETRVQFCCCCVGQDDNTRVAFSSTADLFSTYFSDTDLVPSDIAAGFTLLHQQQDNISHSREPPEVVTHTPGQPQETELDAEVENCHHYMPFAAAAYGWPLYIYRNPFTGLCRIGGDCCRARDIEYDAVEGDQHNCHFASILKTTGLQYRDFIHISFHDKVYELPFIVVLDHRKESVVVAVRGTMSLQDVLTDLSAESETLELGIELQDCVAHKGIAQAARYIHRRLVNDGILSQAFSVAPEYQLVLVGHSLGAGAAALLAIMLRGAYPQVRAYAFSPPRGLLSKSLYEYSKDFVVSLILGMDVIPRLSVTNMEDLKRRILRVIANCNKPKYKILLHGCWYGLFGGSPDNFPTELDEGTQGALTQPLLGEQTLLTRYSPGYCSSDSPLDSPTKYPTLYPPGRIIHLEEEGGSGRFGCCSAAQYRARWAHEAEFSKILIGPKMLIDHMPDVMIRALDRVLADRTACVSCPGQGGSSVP
Assay: mouse DAGLb substrate turnover inhibition – biochemical, LC-MS, overexpressed mouse DAGLb (AID 602415)
Settings: HEK293T membranes overexpressing mDAGLb, SAG turnover LC-MS; at 10 µM; hits give low values
Labelling field: enter Condition met if recorded substrate turnover is less than 60%. Enter Condition not met if it equals or exceeds that cut-off.

| Compound | Class Name |
| --- | --- |
| Cc1[nH]n2c(=O)cc(-c3ccc([N+](=O)[O-])cc3)nc2c1-c1ccccc1 | Condition not met |
| Cc1ccc(C)c(NC(=O)/C(C#N)=C/c2cn(CC(=O)NCc3ccco3)c3ccccc23)c1 | Condition not met |
| Nc1nc(-c2ccccc2)c(N=Nc2cccc3ccccc23)s1 | Condition not met |
| Cc1ccc(NC2=C(Cl)C(=O)OC2OC(=O)c2ccco2)cc1C (stereo not given) | Condition met |
| NS(=O)(=O)c1ccc(N=Nc2c(O)ccc3ccccc23)cc1 | Condition met |
